# Study system: T1, Peptide 4: Biotin-AGGGGSGGGGSGGGGSAAA-Tyr-acid (N-terminal biotin; C-terminal acid; no PC)
# T1 construct: control peptide without PC
# T1 peptide: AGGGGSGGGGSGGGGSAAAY
# Method description: scFv ELISA
Observed property: OD450

Worked set:
Binder: PcOxP_DB04_H08 (scFv, V domains shown, scFv in periplasmic extract) VH: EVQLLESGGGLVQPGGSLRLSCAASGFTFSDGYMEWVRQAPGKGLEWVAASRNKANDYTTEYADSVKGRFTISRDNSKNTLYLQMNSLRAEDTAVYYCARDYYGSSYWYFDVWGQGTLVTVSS VL: DIQMTQSPSSLSASVGDRVTITCTASESLYSSKHKVHYLAWYQQKPGKAPKLLIYGASNLYSGVPSRFSGSGSGTDFTLTISSLQPEDFATYYCAQFYSYPLTFGGGTKVEIK
OD450: 0.07 OD450
--
Binder: PcOxP_DB04_G06 (scFv, V domains shown, scFv in periplasmic extract) VH: EVQLLESGGGLVQPGGSLRLSCAASGFTFSDFYMEWVRQAPGKGLEWVAASRWKANDYTTEYADSVKGRFTISRDNSKNTLYLQMNSLRAEDTAVYYCARDYYESSYWYFDVWGQGTLVTVSS VL: DIQMTQSPSSLSASVGDRVTITCTASQSLYSSKHKVHYLAWYQQKPGKAPKLLIYGASNRYIGVPSRFSGSGSGTDFTLTISSLQPEDFATYYCAQFYVYPLTFGGGTKVEIK
OD450: 0.07 OD450
--
Binder: PcOxP_DB01_B02 (scFv, V domains shown, scFv in periplasmic extract) VH: EVQLLESGGGLVQPGGSLRLSCAASGGTFSDFYMEWVRQAPGKGLEWVAASRNKANSYTTAYADSVKGRFTISRDNSKNTLYLQMNSLRAEDTAVYYCARDYYGSSYWYFDVWGQGTLVTVSS VL: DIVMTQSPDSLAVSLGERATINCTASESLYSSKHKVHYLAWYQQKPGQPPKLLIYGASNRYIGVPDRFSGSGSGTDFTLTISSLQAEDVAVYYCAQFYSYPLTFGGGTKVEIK
OD450: 0.06 OD450
--
Binder: PcOxP_DB02_B07 (scFv, V domains shown, scFv in periplasmic extract) VH: EVQLLESGGGLVQPGGSLRLSCAASGFTFSDQYMEWVRQAPGKGLEWVAASRNNANDYTTEYADSVKGRFTISRDNSKNTLYLQMNSLRAEDTAVYYCARDYYGSSYWYFDVWGQGTLVTVSS VL: DIVMTQSPDSLAVSLGERATINCTASESLYSSKHKVHYLAWYQQKPGQPPKLLIYGASNRQIGVPDRFSGSGSGTDFTLTISSLQAEDVAVYYCAQFYHYPLTFGGGTKVEIK
OD450: 0.04 OD450

Now for another entry.
IN: Field request: OD450 | item: PcOxP_DB02_E02 (scFv, V domains shown, scFv in periplasmic extract) VH: EVQLLESGGGLVQPGGSLRLSCAASGFTFSDEYMEWVRQAPGKGLEWVAASRNSGNSYTTAYADSVKGRFTISRDNSKNTLYLQMNSLRAEDTAVYYCARDYYGSSYWYFDVWGQGTLVTVSS VL: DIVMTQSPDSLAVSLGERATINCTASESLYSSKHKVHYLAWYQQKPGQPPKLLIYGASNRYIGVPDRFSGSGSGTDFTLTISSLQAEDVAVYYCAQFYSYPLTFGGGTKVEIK
OUT: 0.04 OD450
